test: AUC(0 to t) in BALB/c mouse at 20 mg/kg, po and measured after 24 hrs by LC-MS/MS analysis; assay type: ADME, organism-based; conditions: in vivo
Measured Endpoint: AUCt (ng·h/mL)
Give bare numbers, in ng·h/mL.

Qu. Return reported AUCt. Input compound: O=C1Nc2ccccc2/C1=C1/Nc2ccccc2/C1=N\OCCCC(=O)N1CCN(C(=O)c2ccc(Cc3n[nH]c(=O)c4ccccc34)cc2F)CC1
Ans. 5900

---

tested on: MCF7; assay: Antiproliferative activity against human MCF7 cells assessed as inhibition of cell viability incubated for 72 hrs by CCK8 assay; type: functional, cell-based; details: MCF7, 72 h
I'd be grateful if you could share measured IC50 for these entries.
Numbers only, in µM.

Worked set:
>>> df
                                   molecule  experimental_result
0  O=C1Nc2ccc(Br)cc2/C1=C1/Nc2ccccc2/C1=N\OCCCC(=O)N1CCN(C(=O)c2cc(Cc3n[nH]c(=O)c4ccccc34)ccc2F)CC1                 29.2
1  NC(=O)c1cccc2cn(-c3ccc([C@@H]4CCCN(C(=O)CCCCO/N=C5/C(=C6/C(=O)Nc7ccccc76)Nc6ccccc65)C4)cc3)nc12                 41.9

Qu. Return the recorded IC50 value; entry: NC(=O)c1cccc2cn(-c3ccc([C@@H]4CCCNC4)cc3)nc12 [NIRAPARIB]
Ans. 11.8

---

molecular target: Poly [ADP-ribose] polymerase 1 (Homo sapiens); conditions: dose 10.0 nM, time 10.0 min
Measured Endpoint: inhibition (%)
Give bare numbers, in %.

>>> df
                            molecule_smiles  measured_endpoint  unit_text  experimental_result
0  O=C1Nc2ccc(F)cc2/C1=C1/Nc2ccccc2/C1=N\OCCCC(=O)N1CCN(C(=O)c2cc(Cc3n[nH]c(=O)c4ccccc34)ccc2F)CC1         inhibition          %                 54.9
1  O=C(c1cc(Cc2n[nH]c(=O)c3ccccc23)ccc1F)N1CCN(C(=O)C2CC2)CC1         inhibition          %                 50.6
2  O=C1Nc2ccccc2/C1=C1/Nc2ccccc2/C1=N\OCCCC(=O)N1CCN(C(=O)c2ccc(Cc3n[nH]c(=O)c4ccccc34)cc2F)CC1         inhibition          %                 64.8

Moving on to another compound below.
Qu. Give the measured inhibition for O=C1Nc2ccc(F)cc2/C1=C1/Nc2ccc(F)cc2/C1=N\OCCCC(=O)N1CCN(C(=O)c2cc(Cc3n[nH]c(=O)c4ccccc34)ccc2F)CC1
Ans. 49.9

---

Can you tell me IC50 for the items I'm about to list?
system: MCF7; experiment: Antiproliferative activity against human MCF7 cells assessed as inhibition of cell viability incubated for 72 hrs by CCK8 assay; format: functional, cell-based; settings: MCF7, 72 h

>>> print(df.to_string())
                            molecule_smiles  experimental_result
0  O=C1Nc2ccc(Br)cc2/C1=C1/Nc2ccc(Br)cc2/C1=N\OCCCC(=O)N1CCN(C(=O)c2cc(Cc3n[nH]c(=O)c4ccccc34)ccc2F)CC1              48.7 µM
1  O=C1Nc2ccccc2/C1=C1/Nc2ccccc2/C1=N\OCCCCCC(=O)N1CCN(C(=O)c2ccc(Cc3n[nH]c(=O)c4ccccc34)cc2F)CC1              > 50 µM
2  NC(=O)c1cccc2cn(-c3ccc([C@@H]4CCCN(C(=O)CCCCCCO/N=C5/C(=C6/C(=O)Nc7ccccc76)Nc6ccccc65)C4)cc3)nc12              > 50 µM
3  O=C1Nc2ccccc2/C1=C1/Nc2ccccc2/C1=N\OCCCCCCCNC(=O)c1cc(Cc2n[nH]c(=O)c3ccccc23)ccc1F              > 50 µM
4  O=C1Nc2ccccc2/C1=C1/Nc2ccccc2/C1=N\OCCCCCNC(=O)c1cc(Cc2n[nH]c(=O)c3ccccc23)ccc1F              > 50 µM
5  O=C1Nc2ccccc2/C1=C1/Nc2ccccc2/C1=N\OCCCCNC(=O)c1cc(Cc2n[nH]c(=O)c3ccccc23)ccc1F              1.82 µM

Qu. For the molecule O=C1Nc2ccccc2/C1=C1/Nc2ccccc2/C1=N\OCCCCCCC(=O)N1CCN(C(=O)c2ccc(Cc3n[nH]c(=O)c4ccccc34)cc2F)CC1 , give its reported IC50.
Ans. > 50 µM

---

target: Poly [ADP-ribose] polymerase 1 (Homo sapiens, UniProt P09874); conditions: dose 10.0 nM, time 10.0 min
Sequence (P09874 whole entry): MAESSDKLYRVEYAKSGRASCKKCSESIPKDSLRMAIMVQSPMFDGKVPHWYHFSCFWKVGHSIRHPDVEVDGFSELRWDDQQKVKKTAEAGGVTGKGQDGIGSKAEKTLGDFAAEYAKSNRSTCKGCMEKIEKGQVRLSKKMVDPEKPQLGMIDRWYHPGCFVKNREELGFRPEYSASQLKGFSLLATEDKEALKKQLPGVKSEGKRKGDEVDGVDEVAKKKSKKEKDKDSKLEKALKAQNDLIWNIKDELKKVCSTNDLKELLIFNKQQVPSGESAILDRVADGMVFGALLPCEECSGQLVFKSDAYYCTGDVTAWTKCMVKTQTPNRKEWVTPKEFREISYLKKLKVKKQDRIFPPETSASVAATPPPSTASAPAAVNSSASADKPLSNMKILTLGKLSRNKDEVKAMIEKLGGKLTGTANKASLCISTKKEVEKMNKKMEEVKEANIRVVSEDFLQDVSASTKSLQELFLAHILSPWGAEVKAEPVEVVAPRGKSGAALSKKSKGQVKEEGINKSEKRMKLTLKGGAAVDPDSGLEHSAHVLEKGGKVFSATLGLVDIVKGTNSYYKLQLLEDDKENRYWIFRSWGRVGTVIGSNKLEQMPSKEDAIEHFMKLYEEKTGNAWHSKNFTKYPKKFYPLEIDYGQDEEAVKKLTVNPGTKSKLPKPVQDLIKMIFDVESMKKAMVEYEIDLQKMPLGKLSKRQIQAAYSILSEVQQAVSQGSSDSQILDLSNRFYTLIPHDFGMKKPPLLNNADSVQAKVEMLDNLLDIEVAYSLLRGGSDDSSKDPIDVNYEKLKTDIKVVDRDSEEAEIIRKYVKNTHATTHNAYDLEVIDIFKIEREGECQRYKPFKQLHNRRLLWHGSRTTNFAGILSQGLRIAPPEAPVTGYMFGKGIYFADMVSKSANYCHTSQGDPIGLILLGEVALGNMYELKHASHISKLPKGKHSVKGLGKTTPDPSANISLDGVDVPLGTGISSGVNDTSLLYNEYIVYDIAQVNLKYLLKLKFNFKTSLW
Answer each item with its documented inhibition.
One number for each entry, in %.

Worked set:
                            molecule_smiles  measured_endpoint  unit_text  experimental_result
0  O=C1Nc2ccc(Br)cc2/C1=C1/Nc2ccc(Br)cc2/C1=N\OCCCC(=O)N1CCN(C(=O)c2cc(Cc3n[nH]c(=O)c4ccccc34)ccc2F)CC1         inhibition          %                 31.1
1  O=C1Nc2ccccc2/C1=C1/Nc2ccc(F)cc2/C1=N\OCCCC(=O)N1CCN(C(=O)c2cc(Cc3n[nH]c(=O)c4ccccc34)ccc2F)CC1         inhibition          %                 55.8

Qu. Give recorded inhibition. O=C1Nc2ccc(Br)cc2/C1=C1/Nc2ccccc2/C1=N\OCCCC(=O)N1CCN(C(=O)c2cc(Cc3n[nH]c(=O)c4ccccc34)ccc2F)CC1
Ans. 53.8

---

test system: MCF7; assay: cells; settings: Homo sapiens, MCF7, 72 h
Description: Antiproliferative activity against human MCF7 cells assessed as inhibition of cell viability incubated for 72 hrs in presence of IDM by CCK8 assay
Can you tell me pIC50 for the items I'm about to list?
Answers are plain numbers, as −log10 of the molar value.

>>> df
                            molecule_smiles  target_under_test  experimental_result
0  O=C(c1cc(Cc2n[nH]c(=O)c3ccccc23)ccc1F)N1CCN(C(=O)C2CC2)CC1               MCF7                 5.63

Field: next compound
Qu. Check the records and state pIC50 for NC(=O)c1cccc2cn(-c3ccc([C@@H]4CCCNC4)cc3)nc12
Ans. 5.85

---

system: MCF7; assay: Antiproliferative activity against human MCF7 cells assessed as inhibition of cell viability incubated for 72 hrs by CCK8 assay; format: functional, cell-based; conditions: MCF7, 72 h
Please provide measured IC50 for the entries that follow.
Numbers only, in µM.

>>> print(df.to_string())
                            molecule_smiles  experimental_result
0  NC(=O)c1cccc2cn(-c3ccc([C@@H]4CCCN(C(=O)c5ccc(CO/N=C6/C(=C7/C(=O)Nc8ccccc87)Nc7ccccc76)cc5)C4)cc3)nc12                 47.3

Now consider a different molecule.
Qu. Answer briefly: IC50 recorded on MCF7 for O=C1Nc2ccccc2/C1=C1/Nc2ccccc2/C1=N\OCCCCC(=O)N1CCN(C(=O)c2ccc(Cc3n[nH]c(=O)c4ccccc34)cc2F)CC1
Ans. 44.3

---

experiment: Half life in BALB/c mouse at 20 mg/kg, po and measured after 24 hrs by LC-MS/MS analysis; format: ADME, organism-based; conditions: in vivo
Measured Endpoint: half-life (h)
Give bare numbers, in h.

Qu. Please indicate half-life recorded for O=C1Nc2ccccc2/C1=C1/Nc2ccccc2/C1=N\OCCCC(=O)N1CCN(C(=O)c2ccc(Cc3n[nH]c(=O)c4ccccc34)cc2F)CC1
Ans. 5.82

---

Exercise: for every item that follows, state its recorded IC50.
system: MV4-11; assay: Antiproliferative activity against human MV4-11 cells assessed as inhibition of cell viability incubated for 72 hrs in presence of IDM by CCK8 assay; assay type: functional, cell-based; settings: MV4-11, 72 h
Could you give the number and then its unit, please?

>>> print(df.to_string())
                            molecule_smiles  target_under_test  experimental_result
0  NC(=O)c1cccc2cn(-c3ccc([C@@H]4CCCNC4)cc3)nc12             MV4-11              1690 nM

# context switch: different compound, same IC50
Qu. Give IC50; test system MV4-11; compound O=C(c1cc(Cc2n[nH]c(=O)c3ccccc23)ccc1F)N1CCN(C(=O)C2CC2)CC1
Ans. 2360 nM

---

tested on: MV4-11; experiment: Antiproliferative activity against human MV4-11 cells assessed as inhibition of cell viability incubated for 72 hrs by CCK8 assay; assay type: functional, cell-based; conditions: MV4-11, 72 h
Measured Endpoint: pIC50
One number for each entry, as −log10 of the molar value.

Below, 4 compounds whose answers are already recorded.
In [3]: df
Out[3]:
                                   compound  experimental_result
0  O=C1Nc2ccccc2/C1=C1/Nc2ccccc2/C1=N\OCCCNC(=O)c1cc(Cc2n[nH]c(=O)c3ccccc23)ccc1F                 4.83
1      O=C1Nc2ccccc2/C1=C1/Nc2ccccc2/C1=N\O                 5.22
2  O=C1Nc2ccc(F)cc2/C1=C1/Nc2ccc(F)cc2/C1=N\OCCCC(=O)N1CCN(C(=O)c2cc(Cc3n[nH]c(=O)c4ccccc34)ccc2F)CC1                 4.35
3  O=C1Nc2ccccc2/C1=C1/Nc2ccccc2/C1=N\OCCCCC(=O)N1CCN(C(=O)c2ccc(Cc3n[nH]c(=O)c4ccccc34)cc2F)CC1                 4.41

Quick one: give me pIC50 for each item below, same order please.
1. O=C1Nc2ccccc2/C1=C1/Nc2ccccc2/C1=N\OCc1ccc(C(=O)N2CCN(C(=O)c3cc(Cc4n[nH]c(=O)c5ccccc45)ccc3F)CC2)cc1
2. NC(=O)c1cccc2cn(-c3ccc([C@@H]4CCCN(C(=O)CCCCCO/N=C5/C(=C6/C(=O)Nc7ccccc76)Nc6ccccc65)C4)cc3)nc12
3. NC(=O)c1cccc2cn(-c3ccc([C@@H]4CCCN(C(=O)c5ccc(CO/N=C6/C(=C7/C(=O)Nc8ccccc87)Nc7ccccc76)cc5)C4)cc3)nc12
4. O=C1Nc2ccc(Br)cc2/C1=C1/Nc2ccccc2/C1=N\OCCCC(=O)N1CCN(C(=O)c2cc(Cc3n[nH]c(=O)c4ccccc34)ccc2F)CC1

Ans.
1. 4.48
2. 4.33
3. 4.40
4. 4.94

Record pIC50 for all entries; do not skip any.
1. NC(=O)c1cccc2cn(-c3ccc([C@@H]4CCCN(C(=O)CCCCO/N=C5/C(=C6/C(=O)Nc7ccccc76)Nc6ccccc65)C4)cc3)nc12
2. O=C1Nc2ccccc2/C1=C1/Nc2ccccc2/C1=N\OCCCC(=O)N1CCN(C(=O)c2ccc(Cc3n[nH]c(=O)c4ccccc34)cc2F)CC1
3. O=C1Nc2ccc(F)cc2/C1=C1/Nc2ccccc2/C1=N\OCCCC(=O)N1CCN(C(=O)c2cc(Cc3n[nH]c(=O)c4ccccc34)ccc2F)CC1
4. NC(=O)c1cccc2cn(-c3ccc([C@@H]4CCCNC4)cc3)nc12 [NIRAPARIB]
5. O=C1Nc2ccc(Br)cc2/C1=C1/Nc2ccc(Br)cc2/C1=N\OCCCC(=O)N1CCN(C(=O)c2cc(Cc3n[nH]c(=O)c4ccccc34)ccc2F)CC1
6. O=C1Nc2ccccc2/C1=C1/Nc2ccccc2/C1=N\OCC1CCN(C(=O)c2cc(Cc3n[nH]c(=O)c4ccccc34)ccc2F)CC1
7. O=C1Nc2ccccc2/C1=C1/Nc2ccc(F)cc2/C1=N\OCCCC(=O)N1CCN(C(=O)c2cc(Cc3n[nH]c(=O)c4ccccc34)ccc2F)CC1

Ans.
1. 4.44
2. 6.28
3. 4.62
4. 5.42
5. 4.31
6. 4.32
7. 4.66

Please give pIC50, item by item, for the list that follows.
1. O=C1Nc2ccccc2/C1=C1/Nc2ccccc2/C1=N\OCCCCNC(=O)c1cc(Cc2n[nH]c(=O)c3ccccc23)ccc1F
2. O=C(c1cc(Cc2n[nH]c(=O)c3ccccc23)ccc1F)N1CCN(C(=O)C2CC2)CC1 [OLAPARIB]

Ans.
4.93
4.87
